Reference source: patent US6642256B2

# subject of test: NR1A/NR2B NMDA receptor subtype (Rattus norvegicus, UniProt P35439+Q00960)
# Construct: buffy coat membrane fraction was prepared from frozen adult rat forebrains; tissue Zivic-Miller Laboratories, Inc; host or cells: adult rat forebrain membranes
# Sequence (Q00960 27-1482, other chains not shown): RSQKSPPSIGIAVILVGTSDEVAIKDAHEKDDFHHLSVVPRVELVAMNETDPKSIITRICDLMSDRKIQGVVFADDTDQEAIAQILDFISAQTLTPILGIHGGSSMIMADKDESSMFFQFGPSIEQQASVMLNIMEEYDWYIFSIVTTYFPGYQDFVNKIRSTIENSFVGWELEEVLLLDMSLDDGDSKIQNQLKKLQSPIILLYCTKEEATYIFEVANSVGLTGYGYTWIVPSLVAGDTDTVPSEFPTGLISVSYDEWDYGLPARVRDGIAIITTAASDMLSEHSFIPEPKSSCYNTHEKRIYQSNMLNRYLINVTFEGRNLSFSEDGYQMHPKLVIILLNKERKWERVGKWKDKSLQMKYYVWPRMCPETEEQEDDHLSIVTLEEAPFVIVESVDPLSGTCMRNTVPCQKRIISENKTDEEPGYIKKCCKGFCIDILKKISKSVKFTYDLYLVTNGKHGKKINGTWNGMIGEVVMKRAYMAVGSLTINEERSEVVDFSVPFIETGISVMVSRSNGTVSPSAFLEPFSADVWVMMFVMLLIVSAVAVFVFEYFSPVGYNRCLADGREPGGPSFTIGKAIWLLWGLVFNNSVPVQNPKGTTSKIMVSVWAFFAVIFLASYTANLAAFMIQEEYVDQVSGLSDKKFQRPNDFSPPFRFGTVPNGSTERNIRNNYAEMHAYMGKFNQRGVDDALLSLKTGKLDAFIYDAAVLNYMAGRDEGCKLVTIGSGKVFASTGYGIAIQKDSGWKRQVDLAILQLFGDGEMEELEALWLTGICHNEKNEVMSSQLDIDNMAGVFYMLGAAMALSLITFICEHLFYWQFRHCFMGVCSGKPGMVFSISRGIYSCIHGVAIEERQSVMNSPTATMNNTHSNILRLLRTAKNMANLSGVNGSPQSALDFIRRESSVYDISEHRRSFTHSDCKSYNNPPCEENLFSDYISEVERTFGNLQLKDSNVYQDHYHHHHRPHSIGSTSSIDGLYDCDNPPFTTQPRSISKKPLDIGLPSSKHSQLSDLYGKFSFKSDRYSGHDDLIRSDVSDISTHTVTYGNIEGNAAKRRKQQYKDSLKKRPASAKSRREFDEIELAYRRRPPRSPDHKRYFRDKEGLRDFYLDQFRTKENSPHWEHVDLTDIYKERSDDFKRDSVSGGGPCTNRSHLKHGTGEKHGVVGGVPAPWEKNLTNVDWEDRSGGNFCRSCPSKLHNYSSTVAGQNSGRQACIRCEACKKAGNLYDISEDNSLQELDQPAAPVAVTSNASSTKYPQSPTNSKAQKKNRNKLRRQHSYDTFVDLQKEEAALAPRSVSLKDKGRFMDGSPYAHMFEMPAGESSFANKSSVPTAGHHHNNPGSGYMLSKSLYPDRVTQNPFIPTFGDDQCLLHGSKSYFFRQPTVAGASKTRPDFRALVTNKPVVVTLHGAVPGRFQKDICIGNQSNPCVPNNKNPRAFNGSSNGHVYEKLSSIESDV
# assay method text: [3H]Ifenprodil binding assay (IFPNR), rat forebrain membranes
# test conditions: Table 1, 4 nM [3H]-ifenprodil, read-out: IFPNR (IC50 μM)
Structures can show the parent of a compound that is named as a salt.
Each item that follows carries a reported IC50.
Hi! Could you send only the number? It should be in µM, unit omitted.

Use these answered entries as a reference point.
O=c1[nH]c2ccc(C3=NOC(CN4CCC(Cc5ccc(F)cc5)CC4)C3)cc2o1 (single isomer, unassigned; (+)) [Example 4a] : 0.016
O=c1[nH]c2ccc(C3=NOC(CN4CCC(Cc5ccccc5)CC4)C3)cc2o1 (racemic) [Example 1] : 0.033
O=c1[nH]c2ccc(C3=NOC(CN4CCC(Cc5ccc(F)cc5)CC4)C3)cc2o1 (single isomer, unassigned; (-)) [Example 4b] : 0.28

Next compound, IC50 to be filled in.
The recorded IC50 for entry O=c1[nH]c2ccc(C3=NOC(CN4CCC(Cc5ccc(F)cc5)CC4)C3)cc2o1 (racemic) [Example 3, hydrochloride] equals 0.03
